pIC50: −log10 of the molar value.
// merged dataset of pIC50 values, system = BRD3 (Homo sapiens (Human), UniProt Q15059), multiple refs
READOUT_KIND: pIC50

MOLECULE | READOUT_KIND | EXPERIMENTAL_VALUE
Cc1cc(N2C(=O)c3nc(C4CC4)n(C(C)(C)C)c3C2c2ccc(Cl)cc2)cn(C)c1=O (stereo not drawn) | pIC50 | 7.18
COc1cccc(C2c3c(ccn3C)C(=O)N2c2cc(Cl)c(=O)n(C)c2)c1 (stereo not drawn) | pIC50 | 6.18
Cc1cc(N2C(=O)c3c(NC(=O)CN(C)C)cn(C)c3C2c2ccc(Cl)cc2)cn2c(C(F)F)nnc12 (stereo not drawn) | pIC50 | 7.54
CCc1nn(C2CC2)c2c1C(c1ccc(Cl)cc1)N(c1cc(C)c(=O)n(C)c1)C2=O (stereo not drawn) | pIC50 | 7.55

a = Cc1cc(N2C(=O)c3nc(C4CC4)n(C(C)C)c3C2c2ccc(Cl)cc2)cn(C)c1=O (stereo not drawn)
b = Cc1cc(N2C(=O)c3nc(C4=CCOCC4)n(C(C)C)c3C2c2ccc(Cl)cc2)cc2c1nnn2C (stereo not drawn)
c = CCc1c2c(nn1C(=O)N(C)C)C(=O)N(c1cc(C)c(=O)n(C)c1)C2c1ccc(Cl)cc1 (stereo not drawn)
d = COc1ncc(-c2cc3c(n2C)C(c2ccc(Cl)cc2)N(c2cc(Cl)c(=O)n(C)c2)C3=O)cn1 (stereo not drawn)
Order field: pIC50 | Direction: descending (largest first) Respond with the label ranking, as requested. b, d, a, c
(b: 7.67, d: 7.27, a: 7.03, c: 6.80)

a = COc1ncc(-n2nc(C)c3c2C(=O)N(c2cc(Cl)c(=O)n(C)c2)C3c2ccc(Cl)cc2)c(OC)n1 (stereo not drawn)
b = COc1ncccc1-c1nc2c([nH]1)[C@@H](c1ccc(Cl)cc1)N(c1cc(C)c3nnc(C(F)F)n3c1)C2=O
Which numeric pIC50 is bigger, that of a or that of b ? Identify your selection by its label. b
(b: 7.64, a: 6.92)

A = Cn1cc(N2C(=O)c3cc(-c4cccn(C)c4=O)n(C4CC4)c3C2c2ccc(Cl)cc2)cc(Cl)c1=O (stereo not drawn)
B = COCn1cc(C)c2c1C(c1ccc(Cl)cc1)N(c1cc(C)c3nnn(C)c3n1)C2=O (stereo not drawn)
C = Cc1cc(N2C(=O)c3c(C4CC4)nn(C[C@@H](O)C(F)(F)F)c3[C@H]2c2ccc(Cl)cc2)cn2c(C)nnc12
Order field: pIC50 | Direction: descending (largest first) Respond with the label ranking, as requested. B, C, A
(B: 7.80, C: 7.60, A: 7.09)

A = Cc1cc(N2C(=O)c3nc(C4=CCOCC4)[nH]c3[C@H]2c2ccc(Cl)cc2)nc2c1nnn2C
B = Cc1nn(C2CC2)c2c1C(c1ccc(C(F)(F)F)cc1)N(c1cc(C)c(=O)n(C)c1)C2=O (stereo not drawn)
Which numeric pIC50 is bigger, that of A or that of B ? Identify your selection by its label. A
(A: 7.74, B: 6.92)

====

// merged dataset of IC50 values, system = BRD3 (Homo sapiens (Human)), multiple refs
READOUT_KIND: IC50 (µM)

MOLECULE | MEASUREMENT_TARGET | IC50 [µM]
Cc1c2c(nn1C1CC1)C(=O)N(c1cc(Cl)c(=O)n(C)c1)[C@H]2c1ccc(Cl)cc1 | BRD3 (Homo sapiens (Human)) | 27
Cc1nn(C2CC2)c2c1C(c1ccc(Cl)cc1)N(c1cc(Cl)c(=O)n(C)c1)C2=O (racemic) | BRD3 (Homo sapiens (Human)) | 0.15
Cc1cn(C2COC2)c2c1C(=O)N(c1cc(C)c3nnc(C)n3c1)C2c1ccc(Cl)cc1 (stereo not drawn) | BRD3 (Homo sapiens (Human)) | 0.023

A = COc1ncccc1-c1nc2c([nH]1)C(c1ccc(Cl)cc1)N(c1cc(C)c3nnc(C(F)F)n3c1)C2=O (stereo not drawn)
B = CCN1CC=C(c2nc3c(n2C(C)C)C(c2ccc(Cl)cc2)N(c2cc(C)c4nnc(C)n4c2)C3=O)CC1 (stereo not drawn)
C = COc1ccc(-c2nc3c(n2C(C)C)C(c2ccc(Cl)cc2)N(c2cc(C)c4nnn(C)c4n2)C3=O)cn1 (stereo not drawn)
D = CCCn1c(-c2cc(OC)ncc2F)nc2c1C(=O)N(c1cc(C)c(=O)n(C)c1)C2c1ccc(Cl)cc1 (stereo not drawn)
E = COCc1nn(C2CC2)c2c1C(c1ccc(Cl)cc1)N(c1cc(C)c(=O)n(C)c1)C2=O (racemic)
Order field: IC50 | Direction: descending (largest first) Respond with the label ranking, as requested. D, E, B, A, C
(D: 0.16 µM, E: 0.089 µM, B: 0.0445 µM, A: 0.028 µM, C: 0.011 µM)
